Provide the recorded Emax for the entries that follow.
# testTarget: M4 mAChR (Homo sapiens, UniProt P08173)
# Construct: expressed in transfected cells; host or cells: CHO-K1
# Sequence (P08173 whole entry): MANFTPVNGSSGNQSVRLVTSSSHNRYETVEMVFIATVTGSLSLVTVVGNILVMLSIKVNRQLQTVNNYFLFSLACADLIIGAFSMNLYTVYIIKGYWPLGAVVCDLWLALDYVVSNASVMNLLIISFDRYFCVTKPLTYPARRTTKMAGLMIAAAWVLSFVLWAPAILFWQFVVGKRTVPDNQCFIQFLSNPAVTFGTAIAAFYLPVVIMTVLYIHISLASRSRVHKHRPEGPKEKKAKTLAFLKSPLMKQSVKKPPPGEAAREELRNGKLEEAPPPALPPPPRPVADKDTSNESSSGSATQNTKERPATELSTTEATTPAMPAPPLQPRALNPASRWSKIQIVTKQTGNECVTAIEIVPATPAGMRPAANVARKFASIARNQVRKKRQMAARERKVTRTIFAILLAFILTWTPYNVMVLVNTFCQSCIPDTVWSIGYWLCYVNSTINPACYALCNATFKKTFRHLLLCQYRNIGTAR
# assayComment: cAMP TR-FRET assay with forskolin, M4-overexpressing CHO-K1 cells
# Type: cell-based
# setupConditions: cAMP TR-FRET with forskolin

// each listed compound needs a value for Emax
1. CCOC(=O)N1CC2(CC[C@@H](N3CCN(c4cc(F)cnc4-c4ccc(O)cc4F)CC3)C2)C1
2. CCOC(=O)N1CC2(CC[C@@H](N3CCN(c4cc(F)cnc4-c4cccnc4)CC3)C2)C1
3. CCOC(=O)N1CC2(CC[C@@H](N3CCN(c4cc(F)cnc4-c4ccc(F)cc4O)CC3)C2)C1
4. CCOC(=O)N1CC2(CC[C@@H](N3CCN(c4cc(F)cnc4-c4ccc5c(c4)OCCO5)CC3)C2)C1

[A]
1. 80 to 100%
2. 80 to 100%
3. 80 to 100%
4. 80 to 100%

// each listed compound needs a value for Emax
1. CCOC(=O)N1CC2(CC[C@@H](N3CCN(c4cc(F)cnc4-c4ccnc5[nH]ccc45)CC3)C2)C1
2. CCOC(=O)N1CC2(CC[C@@H](N3CCN(c4cc(F)cnc4-c4cnc(OC)c(C)c4)CC3)C2)C1
3. CCOC(=O)N1CC2(CC[C@@H](N3CCN(c4cc(F)cnc4-c4cccc5c4cnn5C)CC3)C2)C1
4. CCNc1ncc(-c2ncc(F)cc2N2CCN([C@@H]3CCC4(C3)CN(C(=O)OCC)C4)CC2)cn1
5. CCOC(=O)N1CC2(CC[C@@H](N3CCN(c4cc(F)cnc4-c4cncc(OC)c4)CC3)C2)C1
6. CCOC(=O)N1CC2(CC[C@@H](N3CCN(c4cc(F)cnc4-c4ccnc5c4ccn5C)CC3)C2)C1
7. CCOC(=O)N1CC2(CC[C@@H](N3CCN(c4cc(F)cnc4-c4cncc(COC)c4)CC3)C2)C1
8. CCOC(=O)N1CC2(CC[C@@H](N3CCN(c4cc(F)cnc4-c4cnc5c(c4)ncn5C)CC3)C2)C1

[A]
1. 80 to 100%
2. 80 to 100%
3. 80 to 100%
4. 80 to 100%
5. 80 to 100%
6. 80 to 100%
7. 80 to 100%
8. 80 to 100%

// each listed compound needs a value for Emax
1. CCOC(=O)N1CC2(CC[C@@H](N3CCN(c4cc(F)cnc4-c4ccc(OC)nc4C)CC3)C2)C1
2. CCOC(=O)N1CC2(CC[C@@H](N3CCC(c4cc(F)cnc4-c4cnccn4)CC3)C2)C1 (single isomer, unassigned)
3. CCOC(=O)N1CC2(CC[C@@H](N3CCN(c4cc(F)cnc4-c4cncs4)CC3)C2)C1
4. CCOC(=O)N1CC2(CC[C@@H](N3CCN(c4cc(F)cnc4-c4ccc(C(=O)NC)cc4)CC3)C2)C1
5. CCOC(=O)N1CC2(CC[C@@H](N3CCN(c4cc(F)cnc4-c4ccnc(OC)c4)CC3)C2)C1
6. CCOC(=O)N1CC2(CC[C@@H](N3CCN(c4cc(F)cnc4-c4ccc5c(c4)ncn5C)CC3)C2)C1
7. CCOC(=O)N1CC2(CC[C@@H](N3CCN(c4cc(F)cnc4-c4cnc5c(ccn5C)c4)CC3)C2)C1
8. CCOC(=O)N1CC2(CC[C@@H](N3CCN(c4cc(F)cnc4-c4cnoc4C)CC3)C2)C1

[A]
["80 to 100%", "80 to 100%", "80 to 100%", "80 to 100%", "80 to 100%", "80 to 100%", "80 to 100%", "80 to 100%"]

// each listed compound needs a value for Emax
1. CCOC(=O)N1CC2(CC[C@@H](N3CCN(c4cc(F)cnc4-c4cccnc4C)CC3)C2)C1
2. CCOC(=O)N1CC2(CC[C@H](N3CCC(c4cc(F)cnc4-n4cc(C)nn4)CC3)C2)C1 (single isomer, unassigned)
3. CCOC(=O)N1CC2(CC[C@@H](N3CCN(c4cc(F)cnc4-c4cccc(C)n4)CC3)C2)C1
4. CCOC(=O)N1CC2(CC[C@@H](N3CCN(c4cc(F)cnc4-c4ccc(F)cc4CO)CC3)C2)C1
5. CCOC(=O)N1CC2(CC[C@@H](N3CCN(c4cc(F)cnc4-c4cncc(O)c4)CC3)C2)C1
6. CCOC(=O)N1CC2(CC[C@@H](N3CCN(c4cc(F)cnc4-c4cc(C)nn4C)CC3)C2)C1
7. CCOC(=O)N1CC2(CC[C@@H](N3CCN(c4cc(F)cnc4-c4cnccn4)CC3)C2)C1

[A]
1. 80 to 100%
2. 80 to 100%
3. 19 to 49.9%
4. 80 to 100%
5. 80 to 100%
6. 80 to 100%
7. 80 to 100%

// each listed compound needs a value for Emax
1. CCOC(=O)N1CC2(CC[C@@H](N3CCN(c4cc(F)cnc4-c4cccc5cnn(C)c45)CC3)C2)C1
2. CCOC(=O)N1CC2(CC[C@@H](N3CCN(c4cc(F)cnc4C4(F)CCOCC4)CC3)C2)C1 (single isomer, unassigned)

[A]
50 to 79.9%
80 to 100%
